Where do these numbers come from? They come from the supplement of paper PMC4466140.

Target: ScBbc1
Assay: SPOT peptide array binding signal intensity (averaged, normalized) (arbitrary units (background-subtracted, floor 0; scale differs between SH3 domains)); higher = stronger binding of the SH3 domain to the peptide
recordedMetric: SPOT peptide array binding signal intensity

Reference set, count: 5
            binder  result
0  VAPPPLPNRQLPNLD     ≤ 0
1  MSPLGAPPPPPHKDH     ≤ 0
2  IAPIPMPKPNPTHIS     ≤ 0
3  NAGIRPKFILALNDE     ≤ 0
4  EAEEAAPQLPSRSSA     ≤ 0

Query binder follows.
Any idea what SPOT peptide array binding signal intensity was measured for NTMKKRPAPPSLPSL ?
4.5
